# assay-explanation: acute oral toxicity, LD50, mouse
# Parameters: species or system mouse (NMRI, female)
# condition-description: in vivo, per os, single administration, mice, N = 5/dose, 14 days observation
Below, each entry is listed alongside its reported LD50 at 336 h.
recorded-metric: LD50 at 336 h (mg/kg)

[[record]]
compound = "CCOC(=O)N1C2CCC1c1cc(NN=C(C)C)nnc1C2 (stereo not shown) [Serial No. 6]"
meas_value = 300

[[record]]
compound = "CC(C)=NNc1cc2c(nn1)CC1CCCC2N1C(=O)c1ccccc1 (stereo not shown) [Serial No. 5]"
meas_value = 510

[[record]]
compound = "CCOC(=O)N1C2CCCC1c1cc(NN)nnc1C2.O=C(O)/C=C/C(=O)O (stereo not shown) [Serial No. 4]"
meas_value = 400

[[record]]
compound = "CCOC(=O)N1CCc2nnc(NN)cc2C1 [Serial No. 1, reference compound]"
meas_value = 340

